Tested on: DMS-114 complex spheroids with HUVEC/MSC, growth % test/control
Procedure details: Anticancer human tumor DMS-114 cell line growth inhibition [AhR];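 also: spheroids exposed to agents for 7 days before readout; 100% = DMSO vehicle control wells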
Conditions: second compound 3.16 µM; first compound 0.003 µM; stronger effect = lower value
Rule for this label: yes (1) means viability, T/C is less than 50%; no (0) means viability, T/C is at least 50%.

Example entries and their recorded answers appear below.
{"columns": ["Compound", "Category"],
 "data": [
  ["CCc1c2c(nc3ccc(O)cc13)-c1cc3c(c(=O)n1C2)COC(=O)[C@]3(O)CC + CC(CO)NC(=O)c1cc(-c2ccc(Cl)cc2)nn(-c2cnn(C)c2)c1=O", "yes (1)"],
  ["CC(C)CC(NC(=O)C(Cc1ccccc1)NC(=O)c1cnccn1)B(O)O (centres undefined) + CC(CO)NC(=O)c1cc(-c2ccc(Cl)cc2)nn(-c2cnn(C)c2)c1=O", "no (0)"],
  ["CC(C)CC(NC(=O)C(Cc1ccccc1)NC(=O)c1cnccn1)B(O)O (centres undefined) + Cc1cncc(-c2nc(NCCc3c[nH]c4ccccc34)c3ncn(C(C)C)c3n2)c1", "no (0)"],
  ["CCc1c2c(nc3ccc(O)cc13)-c1cc3c(c(=O)n1C2)COC(=O)[C@]3(O)CC + Cc1cncc(-c2nc(NCCc3c[nH]c4ccccc34)c3ncn(C(C)C)c3n2)c1", "yes (1)"],
  ["CCc1c2c(nc3ccc(O)cc13)-c1cc3c(c(=O)n1C2)COC(=O)[C@]3(O)CC + Cc1ccccc1N=Nc1ccc(NC(=O)c2ccnn2C)c(C)c1", "no (0)"],
  ["Nc1ncn(C2CC(O)C(CO)S2)c(=O)n1 (centres undefined) + Cc1cncc(-c2nc(NCCc3c[nH]c4ccccc34)c3ncn(C(C)C)c3n2)c1", "no (0)"],
  ["Nc1ncn(C2CC(O)C(CO)S2)c(=O)n1 (centres undefined) + Cc1ccccc1N=Nc1ccc(NC(=O)c2ccnn2C)c(C)c1", "no (0)"],
  ["CC(C)CC(NC(=O)C(Cc1ccccc1)NC(=O)c1cnccn1)B(O)O (centres undefined) + Cc1ccccc1N=Nc1ccc(NC(=O)c2ccnn2C)c(C)c1", "no (0)"]
]}

Criterion: viability, T/C strictly below 50%. Is it met by Nc1ncn(C2CC(O)C(CO)S2)c(=O)n1 (centres undefined) + CC(CO)NC(=O)c1cc(-c2ccc(Cl)cc2)nn(-c2cnn(C)c2)c1=O ?
no (0)

Values were extracted from PubChem BioAssay AID1919008.
